Property Name: melting point

Below, 5 compounds whose answers are already recorded.
{"Compound": "CCc1ccccc1/C(N)=C1\\Sc2ccccc2C1=O", "Property Name": "melting point", "Result": "132 to 133 °C"}
{"Compound": "Cc1c(Br)c(C)c2c(OS(=O)(=O)C(F)(F)F)coc2c1C", "Property Name": "melting point", "Result": "54 to 55 °C"}
{"Compound": "CCOc1cc2ncc(C#N)c(Nc3ccc(F)cc3C)c2cc1OCC", "Property Name": "melting point", "Result": "105 to 108 °C"}
{"Compound": "CC(=O)OCC(C)C1=CCC2C3CC=C4CC(OC(C)=O)CCC4(C)C3CCC12C (stereo not given)", "Property Name": "melting point", "Result": "116 to 117 °C"}
{"Compound": "Cc1cc(F)cc([N+](=O)[O-])c1C#N", "Property Name": "melting point", "Result": "61 to 63 °C"}

Summary for this compound, CC(C)(C)c1cc(CN(c2cccnc2)S(=O)(=O)c2cccc(Br)c2)cc(C(C)(C)C)c1O : melting point is 129 to 131 °C

Entry COc1ncc(-c2ccc3nnn(Cc4ccc5ncccc5c4)c3n2)cn1 ; melting point = 201 to 203 °C

Per the records, this compound ( O=c1c(CO)cc(-c2ccc3c(c2)CCO3)nn1Cc1ccc(Cl)cc1 ) has melting point equal to 129 to 134 °C

So for COc1cccc2c1nc(Cl)n2C , the logged melting point turned out to be 118 to 119 °C

Notebook: Cc1oc(=O)c(Nc2ccc([N+](=O)[O-])cc2)nc1Cl , melting point read as 230 to 234 °C

Value source: a melting point compilation (Tetko et al.; mined from patent text by program, amines drawn as free bases though some values may be those of a salt)
